Assign MIC to each entry below.
Tested on: Staphylococcus aureus
Assay: Antibacterial activity against Staphylococcus aureus ATCC 29213 after 16 to 18 hrs by CLSI method
Type: functional

Provide reported MIC for each item, in the same order as listed.
1. Cc1nc2ccccc2c(=O)n1-c1cccc(-n2cc(-c3ccccc3)nn2)c1
2. Cc1nc2ccccc2c(=O)n1-c1cccc(OCc2cn(-c3cccc(O)c3)nn2)c1

Output line:
> 64 µg/mL
> 64 µg/mL

Provide reported MIC for each item, in the same order as listed.
1. Cc1nc2ccccc2c(=O)n1-c1cccc(OCc2cn(-c3ccc(O)cc3)nn2)c1
2. CCC(C)(C)c1ccc(OCc2cn(-c3cccc(-n4c(/C=C/c5ccc(C#N)cc5)nc5ccccc5c4=O)c3)nn2)cc1
3. N#Cc1ccc(/C=C/c2nc3ccccc3c(=O)n2-c2cccc(OCc3cn(-c4ccc(Cl)cc4)nn3)c2)cc1
4. Cc1cccc2c(=O)n(-c3cccc(OCc4cn(-c5cccc(Cl)c5)nn4)c3)c(/C=C/c3ccc(C#N)cc3)nc12
5. N#Cc1ccc(/C=C/c2nc3ccccc3c(=O)n2-c2cccc(OCc3cn(Cc4cccc(Br)c4)nn3)c2)cc1
6. CCC(C)(C)c1ccc(OCc2cn(-c3cccc(-n4c(C)nc5ccccc5c4=O)c3)nn2)cc1

Output line:
1. > 64 µg/mL
2. > 64 µg/mL
3. 0.5 µg/mL
4. > 64 µg/mL
5. 0.5 µg/mL
6. > 64 µg/mL
